Parameter IC50: see the listing below.
System: human plasma kallikrein (Homo sapiens, UniProt P03952)
Construct: purchased Kabi Co
Sequence (P03952 20-638): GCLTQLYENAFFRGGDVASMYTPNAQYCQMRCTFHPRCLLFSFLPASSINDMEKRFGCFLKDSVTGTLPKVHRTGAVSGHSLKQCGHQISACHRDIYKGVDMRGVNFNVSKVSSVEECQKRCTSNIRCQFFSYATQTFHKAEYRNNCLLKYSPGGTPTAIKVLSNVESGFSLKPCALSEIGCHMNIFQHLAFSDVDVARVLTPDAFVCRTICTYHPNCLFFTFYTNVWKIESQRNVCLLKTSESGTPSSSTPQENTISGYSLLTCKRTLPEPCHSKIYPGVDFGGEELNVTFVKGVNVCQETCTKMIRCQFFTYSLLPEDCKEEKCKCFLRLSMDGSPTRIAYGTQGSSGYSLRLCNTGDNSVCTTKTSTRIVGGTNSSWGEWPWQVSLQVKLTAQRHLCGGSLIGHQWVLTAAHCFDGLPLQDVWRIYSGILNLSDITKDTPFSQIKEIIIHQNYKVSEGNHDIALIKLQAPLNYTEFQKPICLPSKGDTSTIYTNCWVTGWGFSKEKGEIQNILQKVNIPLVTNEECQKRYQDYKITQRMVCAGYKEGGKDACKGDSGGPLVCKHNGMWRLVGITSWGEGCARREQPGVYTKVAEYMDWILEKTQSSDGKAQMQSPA
Protocol description: Assay for inhibitory activity against kallikrein (synthetic substrate S-2302)
Format: biochemical
Condition info: Table 3, compounds of the invention; S-2302, pH 8.0, 37° C.; read-out: Kallikrein
Where a SMILES comes first, the peptide text is derived from it. [ ]: non-standard residue; d: D form. The star is where a group is joined. Tos = Cc1ccc(S(=O)(=O)*)cc1; PhAc = O=C(Cc1ccccc1)*
Use nM as the unit, but write only the number.

{"columns": ["Molecule", "IC50 (nM)"],
 "data": [
  ["Cc1ccc(S(=O)(=O)NCCCC[C@@H](N)C(=O)N2CCC[C@H]2C(=O)N[C@H](C=O)CCCNC(=N)N)cc1 [Example 1] (H-[dK](Tos)-Pro-Arg-aldehyde)", 29]
]}

# input for lookup
IC50 in this record for N=C(N)NCCC[C@@H](C=O)NC(=O)[C@@H]1CCCN1C(=O)[C@H](N)CCCCNC(=O)Cc1ccccc1 [Example 9] (H-[dK](PhAc)-Pro-Arg-aldehyde) : 200
